# System: Rattus norvegicus
# test name: Analgesic activity in Wistar albino rat assessed as reaction time required for tail flicking at 20 mg/kg after 30 mins by tail-flick method relative to control
# Type: functional
metric name: Time (s)
Give just the numeric value; s need not be written.

molecule=O=C1CSc2ccccc2N1Cc1nn(CN2CCOCC2)c(=S)n1/N=C/c1ccccc1 assay_system="Rattus norvegicus" quantitative_readout=3.175
molecule=O=C1CSc2ccccc2N1Cc1nn(CN2CCOCC2)c(=S)n1/N=C/c1ccc([N+](=O)[O-])cc1 assay_system="Rattus norvegicus" quantitative_readout=5.425
molecule=O=C1CSc2ccccc2N1Cc1nn(CN2CCOCC2)c(=S)n1/N=C/c1ccc(Cl)cc1 assay_system="Rattus norvegicus" quantitative_readout=4.8
molecule=CN1CCN(Cn2nc(CN3C(=O)CSc4ccccc43)n(/N=C/c3ccc(Cl)cc3)c2=S)CC1 assay_system="Rattus norvegicus" quantitative_readout=4.575
molecule="CC(C)=CCN1CC[C@]2(C)c3cc(O)ccc3C[C@H]1[C@H]2C [(+)-PENTAZOCINE]" assay_system="Rattus norvegicus" quantitative_readout=6.4
molecule=O=C1CSc2ccccc2N1Cc1nn(CN2CCOCC2)c(=S)n1/N=C/c1ccc(O)cc1 assay_system="Rattus norvegicus" quantitative_readout=4.3

Moving on to another molecule below.
Request: Recall and state the measured Time for `CN1CCN(Cn2nc(CN3C(=O)CSc4ccccc43)n(/N=C/c3ccccc3)c2=S)CC1` .
Result: 3.5

###

# Test system: Rattus norvegicus
# test name: Analgesic activity in Wistar albino rat assessed as reaction time required for tail flicking at 20 mg/kg after 60 mins by tail-flick method relative to control
# Format: functional
metric name: Time (s)
Give just the numeric value; s need not be written.

Check out these entries, answers already filled in.
compound=CN1CCN(Cn2nc(CN3C(=O)CSc4ccccc43)n(/N=C/c3ccccc3)c2=S)CC1 units_symbol=s quantitative_readout=4.3
compound=CN1CCN(Cn2nc(CN3C(=O)CSc4ccccc43)n(/N=C/c3ccc([N+](=O)[O-])cc3)c2=S)CC1 units_symbol=s quantitative_readout=5.975
compound=O=C1CSc2ccccc2N1Cc1nn(CN2CCOCC2)c(=S)n1/N=C/c1ccc(Cl)cc1 units_symbol=s quantitative_readout=4.875
compound=O=C1CSc2ccccc2N1Cc1nn(CN2CCOCC2)c(=S)n1/N=C/c1ccc([N+](=O)[O-])cc1 units_symbol=s quantitative_readout=6.05
compound=O=C1CSc2ccccc2N1Cc1nn(CN2CCCCC2)c(=S)n1/N=C/c1ccc([N+](=O)[O-])cc1 units_symbol=s quantitative_readout=5.3

Moving on to another compound below.
Request: GET Time | system: Rattus norvegicus | item: `O=C1CSc2ccccc2N1Cc1nn(CN2CCOCC2)c(=S)n1/N=C/c1ccc(O)cc1`
Result: 5

###

# Tested on: Rattus norvegicus
# test name: Analgesic activity in Wistar albino rat assessed as reaction time required for tail flicking at 20 mg/kg after 60 mins by tail-flick method relative to control
# Format: functional
metric name: Time (s)
Give just the numeric value; s need not be written.

Check out these entries, answers already filled in.
compound=CN1CCN(Cn2nc(CN3C(=O)CSc4ccccc43)n(/N=C/c3ccc(Cl)cc3)c2=S)CC1 quantitative_readout=5.375
compound=O=C(O)CN1C(=O)CSc2ccccc21 quantitative_readout=6.5
compound=O=C1CSc2ccccc2N1Cc1nn(CN2CCCCC2)c(=S)n1/N=C/c1ccccc1 quantitative_readout=5.3
compound="CC(C)=CCN1CC[C@]2(C)c3cc(O)ccc3C[C@H]1[C@H]2C [(+)-PENTAZOCINE]" quantitative_readout=7.175

Request: GET Time | system: Rattus norvegicus | item: `O=C1CSc2ccccc2N1Cc1nn(CN2CCOCC2)c(=S)n1/N=C/c1ccccc1`
Result: 3.375

###

Measured Time, listed per entry for reference.
# Test system: Rattus norvegicus
# test name: Analgesic activity in Wistar albino rat assessed as reaction time required for tail flicking at 20 mg/kg after 30 mins by tail-flick method relative to control
# Type: functional

Check out these entries, answers already filled in.
compound=O=C1CSc2ccccc2N1Cc1nn(CN2CCCCC2)c(=S)n1/N=C/c1ccc([N+](=O)[O-])cc1 metric_name=Time result="5.1 s"
compound=CN1CCN(Cn2nc(CN3C(=O)CSc4ccccc43)n(/N=C/c3ccc([N+](=O)[O-])cc3)c2=S)CC1 metric_name=Time result="5.475 s"
compound=O=C1CSc2ccccc2N1Cc1nn(CN2CCCCC2)c(=S)n1/N=C/c1ccccc1 metric_name=Time result="3.925 s"

Request: GET Time | system: Rattus norvegicus | item: `O=C(O)CN1C(=O)CSc2ccccc21`
Result: 5.775 s
